system: HCT-15 colon; experiment: NCI tumour cell line growth inhibition, 48 h
PARAMETER_MEASURED: TGI

Query (compound): Cc1ccc(S(=O)(=O)NC(CCCCN)C(=O)CCl)cc1 (stereo not drawn) ; field requested: TGI > 100 µM

Quick check: TGI of N#C/C(=C/NC(=S)Nc1ccc(S(N)(=O)=O)cc1)C(N)=O ? > 100 µM

Requested read-out: TGI. Entry: CC(C)(C)C(=O)C(C#N)C(=O)C(C)(C)C > 100 µM

Query: TGI; subject: CCN(CC)CCC(CNc1c2ccc(Cl)cc2nc2ccc(OC)cc12)c1ccccc1 (stereo not drawn) 4.33 µM

Please report the recorded TGI for CCCCCCCCCCCCCCCCCc1nc(C#N)c(N)o1 . > 100 µM

Fill in: TGI of O=C(CCc1nnc2s/c(=C\c3ccc(Cl)cc3Cl)c(=O)n12)Nc1cc(Cl)c(Cl)cc1Cl is ___ > 100 µM

Quick one: TGI of Cc1nn(-c2ccccc2)c2ncc3c(c12)C(=O)N(Cc1ccccc1)C3=O ? > 100 µM

Requested read-out: TGI. Entry: C=CCn1c(=O)c(-c2ccccc2)c(O)c2ccccc21 > 100 µM

Item Cn1c([N+](=O)[O-])cnc1/C=C1\Oc2ccc(Cl)cc2C1=O has what recorded TGI? 1.04 µM

What measured TGI goes with N#Cc1c(C#N)c(-c2ccco2)n(/N=C/c2ccco2)c1N ? > 100 µM

Entry under review: CN(C)CCCN1c2ccc3ccccc3c2Sc2cccc(Cl)c21 . Reported TGI? 22.7 µM

Fill blank: measured TGI of the compound N#Cc1c(-c2ccc(Cl)cc2)n([O-])c2ccccc2[n+]1=O is ____. 37.5 µM

Return reported TGI; argument: O=S(=O)(CC#CCS(=O)(=O)c1ccccc1)c1ccccc1 4 µM

Dear colleague, I am looking for the recorded TGI of the following compound: Nc1n[nH]c(=O)c2c1c(Br)cn2C1OC(CO)C(O)C1O (stereo not drawn) 48.4 µM

Reported TGI, compound COC[C@@H](N=Cc1ccc(OC)cc1)C(C)C : ____ > 100 µM

Which measured TGI value corresponds to COC(=O)c1c(OC(=O)c2ccccc2)noc1CC(=O)OC1C=CCCC1 (stereo not drawn) ? > 100 µM

Any idea what its TGI is? The compound is Cn1c(N)c(N=Nc2ccc(S(N)(=O)=O)cc2)c(=O)n(C)c1=O > 100 µM

Would you mind telling me what TGI value was observed for COc1ccc(C2Oc3cc(OC)c(O)cc3[C@@H]2C)cc1 (stereo partly drawn) ? 35.4 µM

---

test system: OVCAR-8 ovarian; test: NCI tumour cell line growth inhibition, 48 h
What TGI was measured for each of the following?

Consider the compound shown here: Cc1ccc(SCN2CCCCC2)cc1 (tested in a mixture with another compound) What is its recorded TGI? > 100 µM

Returns the measured TGI for the input compound. Input: Nc1n[nH]c(=O)c2c1c(Br)cn2C1OC(CO)C(O)C1O (stereo not given) 6.23 µM

Item under review: CC(=O)NC1C(=O)CC(c2ccccc2)N(C)C1c1ccccc1 (stereo not given) . Reported TGI? > 100 µM

Request the reported TGI associated with COC(=O)c1c(OC(=O)c2ccccc2)noc1CC(=O)OC1C=CCCC1 (stereo not given) > 100 µM

Entry O=c1n(CCO)nc2n1CCCN2 has what TGI? > 100 µM

Need TGI, item Cc1c2cccc-2c(N(C)C)cc2c1[nH]c1ccccc12 10.3 µM

I'd like to know its TGI. The compound in question is CN1CCN(Cc2ccc(NC(=O)c3cncc(C#Cc4c(N)ncc5ccc(F)cc45)c3)cc2C(F)(F)F)CC1 8.03 µM

Query (compound): CCN(CC)CCC(CNc1c2ccc(Cl)cc2nc2ccc(OC)cc12)c1ccccc1 (stereo not given) ; field requested: TGI 3.6 µM

TGI lookup needed for O=C(c1ccccc1)c1cc(-c2ccccc2)c(-c2ccccc2)[nH]c(=O)c1=O , thanks. > 100 µM

Recorded TGI for OB1OCc2ccccc21 , please? > 100 µM

# lookup: TGI of O=C1NC(N2CCCC(CO)C2)=N/C1=C\c1ccc(O)cc1 (stereo not given) > 100 µM

Field request: TGI | item: CCCCCC1C2C(=O)NC(=O)C1C(=O)NC2=O (stereo not given) > 100 µM

Please give the measured TGI for this compound: S=C(N/N=C/c1ccccc1)NC1CC(c2ccccc2)Oc2ccccc21 (stereo not given) > 100 µM

Suppose we examine the compound CC1SC(c2cccc(Oc3ccccc3)c2)N(CCc2cccs2)C1=O (stereo not given) ; what TGI value has been reported? 5.06 µM

Entry O=C(NC(c1ccccc1)C(O)C(=O)OCc1ccc2c(c1)C(=O)c1ccccc1C2=O)c1ccccc1 (stereo not given) : reported TGI = ? 41 µM

Item under review: O=c1c2ccccc2nc(-c2ccccc2Cl)n1NC1OC(CO)C(O)C(O)C1O (stereo not given) . Reported TGI? > 100 µM

GET /values?readout=TGI&item= Clc1ccc(CCn2ccc3ccccc32)c(Cl)c1 > 100 µM

What value of TGI has been recorded for this entry: Cn1c(N)c(N=Nc2ccc(S(N)(=O)=O)cc2)c(=O)n(C)c1=O > 100 µM

What does the data say about its TGI? Entry: Cc1cn2cc(-c3ccncc3)nc2s1 > 100 µM

Tell me the measured TGI of CC(C)(O)C1CC(=O)C(C)(C2C(O)CC3(C)C4CC=C5C(CCC(O)C5(C)C)C4(C)C(=O)CC23C)O1 (stereo not given) , please. > 100 µM

# TGI lookup, item CCCCc1ccc(C(N)=O)nc1 > 100 µM

Which TGI reading was recorded for the compound C=C1C(=O)O[C@H]2[C@H]1CC/C(Cn1cc(CNC(=O)c3cc4ccccc4[nH]3)nn1)=C\CC[C@@]1(C)O[C@@H]21 ? 17.2 µM

# input compound: COc1cc(NS(C)(=O)=O)ccc1N1Cc2cnc3ccc4[nH]ccc1c4c23 ; wanted: its TGI > 100 µM

Entry under review: C/C=C\C(C)=C/C(C)C(=O)CC(O)CC1CC(=O)NC(=O)C1 (stereo not given) . Reported TGI? 98.8 µM

Endpoint output: TGI of CCN1CCc2sc3[nH]c(=S)n(C)c(=O)c3c2C1 . Value? > 100 µM
